Tested on: E. coli TESEC Mtb DapB
Experiment: growth (OD600 after 10 h); higher = more growth (less inhibition)
Details: arabinose induction (level): High; compound 0.1 mM; raw OD600 reference: median of DMSO wells […], cell-free background 0.041
Counter-ions that a name gives are not always drawn.
measured-metric: growth
Quick one: just the number, no unit, thanks!

[
  {
    "molecule": "CC(=O)Nc1c(I)c(NC(C)=O)c(I)c(C(=O)O)c1I [Diatrizoic acid dihydrate]",
    "growth": 0.197
  }
]

Quote growth reported for CN(C)CCC(c1ccccc1)c1ccccn1 (centres undefined) [Pheniramine maleate] please.
0.201

Quote growth reported for CNCCC=C1c2ccccc2C=Cc2ccccc21 please.
0.186

Quote growth reported for COC(c1ccccc1)(c1ccccc1)[C@H](Oc1nc(C)cc(C)n1)C(=O)O please.
0.191

Quote growth reported for C#C[C@]1(O)CC[C@H]2[C@@H]3CCC4=CCCC[C@@H]4[C@H]3CC[C@@]21C please.
0.174

Quote growth reported for Cc1ccc2c(c1)c1c3n2CCNC3CCC1 (centres undefined) [Pirlindole mesylate] please.
0.18

Quote growth reported for O=c1[nH]c(=O)n([C@H]2C[C@H](O)[C@@H](CO)O2)cc1F please.
0.129

Quote growth reported for C[C@]12CCC(=O)C=C1C=C[C@@H]1[C@@H]2CC[C@@]2(C)[C@H]1CC[C@@]21CCC(=O)O1 please.
0.139

Quote growth reported for NS(=O)(=O)c1cc2c(cc1Cl)N=CNS2(=O)=O [Chlorothiazide] please.
0.193

====

Catalogue of compounds with associated growth
System: E. coli TESEC Mtb Alr
Assay: growth (OD600 after 10 h); higher = more growth (less inhibition)
Conditions: arabinose 10000 nM; compound 0.1 mM; raw OD600 reference: median of DMSO wells 0.264, cell-free background 0.041

[
  {
    "compound": "CC[C@H]1OC(=O)[C@H](C)[C@@H](O[C@H]2C[C@@](C)(OC)[C@@H](O)[C@H](C)O2)[C@H](C)[C@@H](O[C@@H]2O[C@H](C)C[C@H](N(C)C)[C@H]2O)[C@](C)(O)C[C@@H](C)C(=O)[C@H](C)[C@@H](O)[C@]1(C)O [Erythromycin]",
    "growth": 0.0397
  },
  {
    "compound": "CC(C)c1c(C(=O)Nc2ccccc2)c(-c2ccccc2)c(-c2ccc(F)cc2)n1CC[C@@H](O)C[C@@H](O)CC(=O)O [Atorvastatin]",
    "growth": 0.108
  }
]

Quote growth reported for C[C@H](N[C@@H](CCc1ccccc1)C(=O)O)C(=O)N1CCC[C@H]1C(=O)O [Enalaprilat dihydrate] please.
0.285

====

System: E. coli TESEC Mtb Alr
Assay: growth (OD600 after 10 h); higher = more growth (less inhibition)
Settings: arabinose 100 nM; compound 0.1 mM; raw OD600 reference: median of DMSO wells 0.413, cell-free background 0.052
Where a name gives a salt, the structure may show the parent alone.
measured-metric: growth
Quick one: just the number, no unit, thanks!

[
  {
    "compound": "CCOC(=O)C1=C(C)NC(C)=C(C(=O)OC)C1c1cccc([N+](=O)[O-])c1 (stereo not drawn) [Nitrendipine]",
    "tested-on": "E. coli TESEC Mtb Alr",
    "growth": 0.412
  },
  {
    "compound": "CCCNC(C)C(=O)Nc1c(C)csc1C(=O)OC (stereo not drawn) [Articaine hydrochloride]",
    "tested-on": "E. coli TESEC Mtb Alr",
    "growth": 0.407
  },
  {
    "compound": "C=C1C[C@H]2[C@@H]3C=C(C)C4=CC(=O)CC[C@]4(C)[C@H]3CC[C@]2(C)[C@@]1(OC(C)=O)C(C)=O [Melengestrol acetate]",
    "tested-on": "E. coli TESEC Mtb Alr",
    "growth": 0.356
  },
  {
    "compound": "O=C1OC(CN2CCOCC2)CN1/N=C/c1ccc([N+](=O)[O-])o1 (stereo not drawn) [Furaltadone hydrochloride]",
    "tested-on": "E. coli TESEC Mtb Alr",
    "growth": 0.0601
  }
]

Quote growth reported for CC(C)(C)NC(=O)[C@@H]1CN(Cc2cccnc2)CCN1C[C@@H](O)C[C@@H](Cc1ccccc1)C(=O)N[C@H]1c2ccccc2C[C@H]1O [Indinavir sulfate] please.
0.422

Quote growth reported for C[N+]1(C)CCC(OC(=O)C(O)(c2ccccc2)C2CCCC2)C1 (stereo not drawn) [Glycopyrrolate] please.
0.408

Quote growth reported for COc1ccc(OC)c(C(O)CNC(=O)CN)c1 (stereo not drawn) [Midodrine hydrochloride] please.
0.424

Quote growth reported for COc1ccccc1OCC(O)CO (stereo not drawn) [Guaifenesin] please.
0.408

Quote growth reported for CC(N)CCCC(C)(C)O (stereo not drawn) [Heptaminol hydrochloride] please.
0.407

Quote growth reported for Clc1cc(Cl)c(OCC#CI)cc1Cl [Haloprogin] please.
0.386

Quote growth reported for CCCNC(=O)NS(=O)(=O)c1ccc(Cl)cc1 [Chlorpropamide] please.
0.396

Quote growth reported for CC(=O)CC(c1ccccc1)c1c(O)c2ccccc2oc1=O (stereo not drawn) [Warfarin] please.
0.39

Quote growth reported for CC1=Nc2ccc(Cl)cc2S(=O)(=O)N1 [Diazoxide] please.
0.411

Quote growth reported for OC(CCN1CCCC1)(c1ccccc1)C1CCCCC1 (stereo not drawn) [Procyclidine hydrochloride] please.
0.412

Quote growth reported for O=C(COc1ccc(Cl)cc1)N1CCN(Cc2ccc3c(c2)OCO3)CC1 [Fipexide hydrochloride] please.
0.38

Quote growth reported for CC(=O)O[C@]1(C(C)=O)CC[C@H]2[C@@H]3C=C(Cl)C4=CC(=O)CC[C@]4(C)[C@H]3CC[C@@]21C [Chlormadinone acetate] please.
0.373

Quote growth reported for NS(=O)(=O)c1cc(C(=O)O)cc(N2CCCC2)c1Oc1ccccc1 [Piretanide] please.
0.412

Quote growth reported for Clc1ccc(C(Cn2ccnc2)OCc2c(Cl)cccc2Cl)c(Cl)c1 (stereo not drawn) [Isoconazole] please.
0.0651

====

Tested on: E. coli TESEC Mtb Alr
Assay: growth (OD600 after 10 h); higher = more growth (less inhibition)
Conditions: arabinose 100000 nM; compound 0.1 mM; raw OD600 reference: median of DMSO wells 0.201, cell-free background 0.041
Classify by measured growth: 1 if it is equal to or exceeds 0.2, -1 if it is smaller.

[
  {
    "molecule": "NC[C@H]1CC[C@H](C(=O)O)CC1",
    "group": 1
  },
  {
    "molecule": "Clc1ccc(CSC(Cn2ccnc2)c2ccc(Cl)cc2Cl)cc1 (stereo not drawn) [Sulconazole nitrate]",
    "group": -1
  },
  {
    "molecule": "C#C[C@]1(OC(C)=O)CC[C@H]2[C@@H]3CCC4=CC(=NO)CC[C@@H]4[C@H]3CC[C@@]21CC (mixture of isomers) [Norgestimate]",
    "group": -1
  },
  {
    "molecule": "CC[C@]12CCCN3CCc4c(n(c5ccccc45)[C@@](O)(C(=O)OC)C1)[C@@H]32",
    "group": -1
  },
  {
    "molecule": "N[C@@H](C(=O)N[C@@H]1C(=O)N2C(C(=O)O)=C(Cl)CC[C@H]12)c1ccccc1",
    "group": 1
  }
]

Check this molecule for growth at or above 0.2: CC(C(=O)O)c1cccc(C(=O)c2ccccc2)c1 (stereo not drawn)
-1

====

Catalogue of compounds with associated growth
Tested on: E. coli TESEC Mtb Alr
Test: growth (OD600 after 10 h); higher = more growth (less inhibition)
Details: arabinose 10000 nM; compound 0.1 mM; raw OD600 reference: median of DMSO wells 0.264, cell-free background 0.041
Quick one: just the number, no unit, thanks!

Some solved cases for reference:
[
  {
    "compound": "COC(=O)C1=C(C)NC(C)=C(C(=O)OC)C1c1ccccc1[N+](=O)[O-]",
    "growth": 0.201
  },
  {
    "compound": "CC(=O)OCC(CCn1cnc2cnc(N)nc21)COC(C)=O",
    "growth": 0.269
  },
  {
    "compound": "Cc1ccc(-c2cc(C(F)(F)F)nn2-c2ccc(S(N)(=O)=O)cc2)cc1",
    "growth": 0.0401
  },
  {
    "compound": "CC(C)(Oc1ccc(C2CC2(Cl)Cl)cc1)C(=O)O (stereo not given) [Ciprofibrate]",
    "growth": 0.273
  }
]

Please find the next compound below.
Quote growth reported for CC[C@]12CCCN3CCc4c(n(c5ccccc45)C(=O)C1)[C@@H]32 [Eburnamonine (-)] please.
0.257

====

Catalogue of molecules with associated growth
Tested on: E. coli TESEC Mtb Alr
Assay: growth (OD600 after 10 h); higher = more growth (less inhibition)
Conditions: arabinose 10000000 nM; compound 0.1 mM; raw OD600 reference: median of DMSO wells 0.146, cell-free background 0.041
Counter-ions that a name gives are not always drawn.
Quick one: just the number, no unit, thanks!

[
  {
    "molecule": "CCOc1ccccc1OC(c1ccccc1)C1CNCCO1 (configuration not stated) [Reboxetine mesylate]",
    "measured-metric": "growth",
    "value-observed": 0.151
  }
]

Quote growth reported for CC(=O)OC(C)C[N+](C)(C)C (configuration not stated) [Methacholine chloride] please.
0.134

Quote growth reported for COC(c1ccccc1)(c1ccccc1)[C@H](Oc1nc(C)cc(C)n1)C(=O)O [Ambrisentan] please.
0.13

Quote growth reported for OCC(O)CN1CCN(c2ccccc2)CC1 (racemic) [Dropropizine (R,S)] please.
0.144

Quote growth reported for O=c1[nH]cnc2c1ncn2[C@H]1CC[C@@H](CO)O1 [Didanosine] please.
0.199

Quote growth reported for CN(C)CC/C=C1\c2ccccc2CSc2ccccc21 [Dosulepin hydrochloride] please.
0.163

Quote growth reported for C=C1c2c(Cl)ccc(O)c2C(O)=C2C(=O)[C@]3(O)C(O)=C(C(N)=O)C(=O)[C@@H](N(C)C)[C@@H]3[C@@H](O)[C@H]12.O=C(O)c1cc(S(=O)(=O)O)ccc1O [Meclocycline sulfosalicylate] please.
0.0463

Quote growth reported for NS(=O)(=O)c1cc(C(=O)O)cc(N2CCCC2)c1Oc1ccccc1 [Piretanide] please.
0.134

Quote growth reported for CN(C)CCCC1(c2ccc(F)cc2)OCc2cc(C#N)ccc21 (configuration not stated) [Citalopram Hydrobromide] please.
0.138

Quote growth reported for CN(C)CCC(c1ccc(Cl)cc1)c1ccccn1 (configuration not stated) [Chlorpheniramine maleate] please.
0.135

Quote growth reported for CC(=O)c1ccc2c(c1)N(CCCN1CCC(CCO)CC1)c1ccccc1S2 [Piperacetazine] please.
0.133

Quote growth reported for CN(C(=O)CN(CCO)CC(=O)N(C)C(C)(C)Cc1ccccc1)C(C)(C)Cc1ccccc1 [Oxethazaine] please.
0.0411

Quote growth reported for NCc1ccc(S(N)(=O)=O)cc1 [Mafenide hydrochloride] please.
0.14

Quote growth reported for O=C1CCc2cc(OCCCCc3nnnn3C3CCCCC3)ccc2N1 [Cilostazol] please.
0.123

The values you see were collected from the supplement of paper PMC9262897.
